meta.source: ChEMBL document CHEMBL4825675

system: RAW264.7; assay: Antiinflammatory activity in mouse RAW264.7 cells assessed as inhibition of LPS-induced NO production incubated for 24 hrs in presence of LPS by Griess reagent-based assay; type: functional, cell-based; conditions: RAW264.7, 24 h
Recorded IC50 by entry
Dear colleague, please return just the value in µM, with no unit written.

Here is how some compounds turned out for IC50.
| compound | target_or_test_system | IC50 [µM] |
| --- | --- | --- |
| C/C(=C\[C@H]1C[C@@](O)([C@@H]2CC[C@]34C[C@]23C=CC2[C@]3(C)C(CC(=O)[C@]24C)C(C)(C)[C@@]2(CC(=O)c4ccccc4)O[C@@H]3OC2=O)C(=O)O1)CO (some centres undefined) | RAW264.7 | 11.4 |
| C[C@@H]1C[C@H]2[C@@H]3CCC4=CC(=O)C=C[C@]4(C)[C@@]3(F)[C@@H](O)C[C@]2(C)[C@@]1(O)C(=O)CO | RAW264.7 | 6.9 |
| C/C(=C\[C@H]1C[C@@](O)([C@@H]2CC[C@]34C[C@]23C=CC2[C@@]4(C)[C@H](O)C[C@H]3C(C)(C)/C(=C/C(=O)c4ccccc4)C(=O)C[C@]23C)C(=O)O1)CO (some centres undefined) | RAW264.7 | 1.6 |

Continue with the next compound.
Lookup result for C/C(=C\[C@H]1C[C@@](O)([C@@H]2CC[C@]34C[C@]23C=CC2[C@@]3(C)CC(=O)/C(=C\C(=O)c5ccccc5)C(C)(C)[C@@H]3CC(=O)[C@]24C)C(=O)O1)CO (some centres undefined) ; measured IC50: 3.5
